- method_description: folding enthalpy; higher = less favourable; fluorescence melt of hairpins on a sequencing array, two-state fit
- experimental_conditions: sodium 0.088 M
readout_label: folding enthalpy (kcal/mol)
Number only, in kcal/mol; omit the unit.

Below: 3 sequences and their reported folding enthalpy.
sequence_code: GCCGCCGAAAGGCAGGGC ((((((....)))..)))
val: -20.3

sequence_code: GATCTTTACCAAGATC ((((((....))))))
val: -29.9

sequence_code: GTCACCGAAAGGTATGAC ((((((....)))..)))
val: -20.2

Problem: Tell me the measured folding enthalpy of GTTCAGGGAAACCTGGAC ((.((((....)))).)) , please.
Result: -29.6

Problem: Now consider GCTTGTGGAAACATAAGC ((((.((....)).)))) .
Result: -29.9
